Test system: M14
assay.procedure: Cytotoxicity against human M14 cells assessed as cell growth at 10 uM
Assay type: functional
conditions: Homo sapiens, M14; read-out: Activity
// reported growth at 10 µM for each item listed
Give the quantity in %, number only.

smiles.representation | growth at 10 µM / %
c1ccc(-c2ccc(-c3ccnc(Nc4ccc(N(c5ccccc5)c5ccccc5)cc4)n3)cn2)cc1 | 90.2
Cc1ccc(Nc2nc(C)cc(-c3cccnc3)n2)c(C)c1 | 114
FC(F)(F)c1cc(Nc2nccc(-c3ccc(Nc4ccccc4)nc3)n2)cc(C(F)(F)F)c1 | 111

Input line: # growth at 10 µM lookup, item `FC(F)(F)c1cc(Nc2nccc(-c3cccnc3)n2)cc(C(F)(F)F)c1`
Output line: 116

Input line: # growth at 10 µM lookup, item `CC(=O)c1ccccc1-c1ccc(-c2ccnc(NC(=O)Nc3cc(N4CCOCC4)cc(C(F)(F)F)c3)n2)cn1`
Output line: 8.07

Input line: # growth at 10 µM lookup, item `O=C(Nc1cc(C(F)(F)F)cc(C(F)(F)F)c1)Nc1nccc(-c2ccc(Nc3ccccc3)nc2)n1`
Output line: 94.2

* * *

Tested on: LOX IMVI
assay.procedure: Cytotoxicity against human LOXIMVI cells assessed as cell growth at 10 uM
Type: functional
conditions: Homo sapiens, LOX IMVI; read-out: Activity
// reported growth at 10 µM for each item listed
Give the quantity in %, number only.

smiles.representation | units.of.measure | growth at 10 µM
FC(F)(F)c1cc(Nc2nccc(-c3ccc(-c4ccccc4)nc3)n2)cc(C(F)(F)F)c1 | % | 98.8
FC(F)(F)c1cc(Nc2nccc(-c3ccc(Nc4ccccc4)nc3)n2)cc(C(F)(F)F)c1 | % | 103
FC(F)(F)c1cc(Nc2nccc(-c3cccnc3)n2)cc(C(F)(F)F)c1 | % | 100
O=C(Nc1cc(C(F)(F)F)cc(C(F)(F)F)c1)Nc1nccc(-c2ccc(Nc3ccccc3)nc2)n1 | % | 112

Input line: # growth at 10 µM lookup, item `Cc1cc(-c2cccnc2)nc(NC(=O)c2cccc(C(F)(F)F)c2)n1`
Output line: 103

Input line: # growth at 10 µM lookup, item `Cc1ccc(Nc2nc(C)cc(-c3cccnc3)n2)c(C)c1`
Output line: 102

* * *

Tested on: SK-MEL-2
assay.procedure: Growth inhibition of human SK-MEL-2 cells after 48 hrs by sulforhodamine B assay
Assay type: functional, cell-based
conditions: SK-MEL-2, 48 h
measurement.label: IC50 (µM)
Give the quantity in µM, number only.

smiles.representation | IC50, µM
CC(=O)c1ccccc1-c1ccc(-c2ccnc(NC(=O)Nc3cc(N4CCOCC4)cc(C(F)(F)F)c3)n2)cn1 | 15.9

Input line: # IC50 lookup, item `CC(=O)Nc1cccc(-c2ccc(-c3ccnc(NC(=O)Nc4cc(C(F)(F)F)cc(C(F)(F)F)c4)n3)cn2)c1.Cl`
Output line: 5.65

* * *

Tested on: M14
assay.procedure: Growth inhibition of human M14 cells after 48 hrs by sulforhodamine B assay
Assay type: functional, cell-based
conditions: Homo sapiens, M14, 48 h; read-out: IC50
measurement.label: pIC50
Reminder that pIC50 is minus the log10 of a molar concentration.

Input line: # pIC50 lookup, item `CC(=O)Nc1cccc(-c2ccc(-c3ccnc(NC(=O)Nc4cc(C(F)(F)F)cc(C(F)(F)F)c4)n3)cn2)c1.Cl`
Output line: 5.74

* * *

Test system: OVCAR-5
assay.procedure: Cytotoxicity against human OVCAR5 cells assessed as cell growth at 10 uM
Assay type: functional
conditions: Homo sapiens, OVCAR-5; read-out: Activity
// reported growth at 10 µM for each item listed
Give the quantity in %, number only.

Reference set, count: 3
smiles.representation | growth at 10 µM [%]
CC(=O)c1ccccc1-c1ccc(-c2ccnc(NC(=O)Nc3cc(N4CCOCC4)cc(C(F)(F)F)c3)n2)cn1 | 102
CC(=O)c1ccc(-c2ccc(-c3ccnc(Nc4cc(C(F)(F)F)cc(C(F)(F)F)c4)n3)cn2)cc1 | 109
FC(F)(F)c1cc(Nc2nccc(-c3cccnc3)n2)cc(C(F)(F)F)c1 | 97

Note: attention shifts to another entry.
Input line: Request - read-out growth at 10 µM | tested on OVCAR-5 | compound `O=C(Nc1cc(C(F)(F)F)cc(C(F)(F)F)c1)Nc1nccc(-c2ccc(Nc3ccccc3)nc2)n1`
Output line: 87

* * *

Test system: A549
assay.procedure: Growth inhibition of human A549 cells after 48 hrs by sulforhodamine B assay
Format: functional, cell-based
conditions: A549, 48 h
measurement.label: pIC50
Reminder that pIC50 is minus the log10 of a molar concentration.

Input line: # pIC50 lookup, item `CC(=O)Nc1cccc(-c2ccc(-c3ccnc(NC(=O)Nc4cc(C(F)(F)F)cc(C(F)(F)F)c4)n3)cn2)c1.Cl`
Output line: 5.83

* * *

System: HOP-62
assay.procedure: Cytotoxicity against human HOP62 cells assessed as cell growth at 10 uM
Type: functional
conditions: Homo sapiens, HOP-62; read-out: Activity
measurement.label: growth at 10 µM (%)
Give the quantity in %, number only.

smiles.representation | growth at 10 µM / %
FC(F)(F)c1cc(Nc2nccc(-c3ccc(Nc4ccccc4)nc3)n2)cc(C(F)(F)F)c1 | 94

Input line: # growth at 10 µM lookup, item `FC(F)(F)c1cc(Nc2nccc(-c3cccnc3)n2)cc(C(F)(F)F)c1`
Output line: 104

Input line: # growth at 10 µM lookup, item `O=C(Nc1cc(C(F)(F)F)cc(C(F)(F)F)c1)Nc1nccc(-c2ccc(Nc3ccccc3)nc2)n1`
Output line: 103

Input line: # growth at 10 µM lookup, item `c1ccc(-c2ccc(-c3ccnc(Nc4ccc(N(c5ccccc5)c5ccccc5)cc4)n3)cn2)cc1`
Output line: 122

Input line: # growth at 10 µM lookup, item `CC(=O)c1ccccc1-c1ccc(-c2ccnc(NC(=O)Nc3cc(C(F)(F)F)cc(C(F)(F)F)c3)n2)cn1`
Output line: 95.6

* * *

System: UACC-62
assay.procedure: Growth inhibition of human UACC62 cells after 48 hrs by sulforhodamine B assay
Assay type: functional, cell-based
conditions: UACC-62, 48 h
measurement.label: IC50 (µM)
Give the quantity in µM, number only.

Input line: # IC50 lookup, item `CC(=O)Nc1cccc(-c2ccc(-c3ccnc(NC(=O)Nc4cc(C(F)(F)F)cc(C(F)(F)F)c4)n3)cn2)c1.Cl`
Output line: 2.86

* * *

// reported growth at 10 µM for each item listed
System: HCT-15
assay.procedure: Cytotoxicity against human HCT15 cells assessed as cell growth at 10 uM
Format: functional
conditions: Homo sapiens, HCT-15; read-out: Activity
State the value with its unit after it.

smiles.representation | growth at 10 µM
Cc1cc(-c2cccnc2)nc(NC(=O)c2cccc(C(F)(F)F)c2)n1 | 98.3%

Input line: # growth at 10 µM lookup, item `FC(F)(F)c1cc(Nc2nccc(-c3ccc(-c4ccccc4)nc3)n2)cc(C(F)(F)F)c1`
Output line: 99.9%

Input line: # growth at 10 µM lookup, item `Cc1ccc(Nc2nc(C)cc(-c3cccnc3)n2)c(C)c1`
Output line: 99.7%

* * *

Test system: NCI/ADR-RES
assay.procedure: Growth inhibition of human NCI/ADR-RES cells after 48 hrs by sulforhodamine B assay
Type: functional, cell-based
conditions: Homo sapiens, NCI/ADR-RES, 48 h; read-out: IC50
measurement.label: IC50 (µM)
Give the quantity in µM, number only.

Input line: # IC50 lookup, item `CC(=O)Nc1cccc(-c2ccc(-c3ccnc(NC(=O)Nc4cc(C(F)(F)F)cc(C(F)(F)F)c4)n3)cn2)c1.Cl`
Output line: 3.66

* * *

System: SF-539
assay.procedure: Cytotoxicity against human SF539 cells assessed as cell growth at 10 uM
Type: functional
conditions: Homo sapiens, SF-539; read-out: Activity
// reported growth at 10 µM for each item listed
Give the quantity in %, number only.

Reference set, count: 5
smiles.representation | growth at 10 µM / %
CC(=O)c1ccccc1-c1ccc(-c2ccnc(NC(=O)Nc3cc(N4CCOCC4)cc(C(F)(F)F)c3)n2)cn1 | 44.3
Cc1cc(-c2cccnc2)nc(NC(=O)c2cccc(C(F)(F)F)c2)n1 | 99.3
FC(F)(F)c1cc(Nc2nccc(-c3ccc(Nc4ccccc4)nc3)n2)cc(C(F)(F)F)c1 | 94.9
FC(F)(F)c1cc(Nc2nccc(-c3cccnc3)n2)cc(C(F)(F)F)c1 | 97.1
CC(=O)c1ccccc1-c1ccc(-c2ccnc(NC(=O)Nc3cc(C(F)(F)F)cc(C(F)(F)F)c3)n2)cn1 | 87

Note: attention shifts to another entry.
Input line: # growth at 10 µM lookup, item `Cc1ccc(Nc2nc(C)cc(-c3cccnc3)n2)c(C)c1`
Output line: 89.7

* * *

Tested on: SF-539
assay.procedure: Growth inhibition of human SF539 cells after 48 hrs by sulforhodamine B assay
Assay type: functional, cell-based
conditions: Homo sapiens, SF-539, 48 h; read-out: IC50
measurement.label: pIC50
Reminder that pIC50 is minus the log10 of a molar concentration.

Input line: # pIC50 lookup, item `CC(=O)Nc1cccc(-c2ccc(-c3ccnc(NC(=O)Nc4cc(C(F)(F)F)cc(C(F)(F)F)c4)n3)cn2)c1.Cl`
Output line: 5.26
